# experiment-summary: in vitro
# condition-summary: human
measurement-kind: CC50

[
  {
    "molecule": "CC(C)(C)NC(=O)N[C@H](C(=O)N1C[C@H]2[C@@H]([C@H]1C(=O)NC(CC1CCC1)C(=O)C(N)=O)C2(C)C)C(C)(C)C (stereo partly shown) [Boceprevir, boceprevir, reference compound]",
    "measurement-kind": "CC50",
    "measurement": "> 100 µM"
  }
]

----------
# experiment-summary: in vitro
# condition-summary: human, Caco-2
measurement-kind: Papp B→A (nm/s)

[
  {
    "compound": "COc1cccc2[nH]c(C(=O)N3C[C@H]4[C@@H]([C@H]3C(=O)N[C@@H](C[C@@H]3CCNC3=O)C(=O)C(N)=O)C4(C)C)cc12 [ML105]",
    "measurement-kind": "Papp B→A",
    "unit-tag": "nm/s",
    "rel": "=",
    "measurement": 3
  },
  {
    "compound": "CNC(=O)C(=O)[C@H](C[C@@H]1CCNC1=O)NC(=O)[C@@H]1[C@@H]2[C@H](CN1C(=O)CCc1ccccc1)C2(C)C [ML102m]",
    "measurement-kind": "Papp B→A",
    "unit-tag": "nm/s",
    "rel": "=",
    "measurement": 18
  },
  {
    "compound": "CC(C)(C)CC(=O)N[C@H](C(=O)N1C[C@H]2[C@@H]([C@H]1C(=O)NC(C[C@@H]1CCNC1=O)C(=O)C(N)=O)C2(C)C)C(C)(C)C (stereo partly drawn) [ML1001]",
    "measurement-kind": "Papp B→A",
    "unit-tag": "nm/s",
    "rel": "=",
    "measurement": 5
  },
  {
    "compound": "CC(C)(C)NC(=O)N[C@H](C(=O)N1C[C@H]2[C@@H]([C@H]1C(=O)NC(CC1CCC1)C(=O)C(N)=O)C2(C)C)C(C)(C)C (stereo partly drawn) [Boceprevir, boceprevir, reference compound]",
    "measurement-kind": "Papp B→A",
    "unit-tag": "nm/s",
    "rel": "=",
    "measurement": 290
  },
  {
    "compound": "CC(C)(C)[C@H](NC(=O)C12CC(C1)C2)C(=O)N1C[C@H]2[C@@H]([C@H]1C(=O)N[C@@H](C[C@@H]1CCNC1=O)C(=O)C(N)=O)C2(C)C [ML1002]",
    "measurement-kind": "Papp B→A",
    "unit-tag": "nm/s",
    "rel": "<",
    "measurement": 2
  },
  {
    "compound": "CC1(C)[C@@H]2[C@@H](C(=O)NC(C[C@@H]3CCNC3=O)C(=O)C(N)=O)N(C(=O)CNc3c(F)cc(F)cc3F)C[C@@H]21 (stereo partly drawn) [ML104]",
    "measurement-kind": "Papp B→A",
    "unit-tag": "nm/s",
    "rel": "=",
    "measurement": 9
  },
  {
    "compound": "CNC(=O)C(=O)[C@H](C[C@@H]1CCNC1=O)NC(=O)[C@@H]1[C@@H]2[C@H](CN1C(=O)[C@@H](NC(=O)C13CC(C1)C3)C(C)(C)C)C2(C)C [ML1002m]",
    "measurement-kind": "Papp B→A",
    "unit-tag": "nm/s",
    "rel": "=",
    "measurement": 7
  },
  {
    "compound": "CC1(C)[C@@H]2[C@@H](C(=O)N[C@@H](C[C@@H]3CCNC3=O)C(=O)C(N)=O)N(C(=O)CCc3ccccc3)C[C@@H]21 [ML102]",
    "measurement-kind": "Papp B→A",
    "unit-tag": "nm/s",
    "rel": "=",
    "measurement": 7
  },
  {
    "compound": "CNC(=O)C(=O)[C@H](C[C@@H]1CCNC1=O)NC(=O)[C@@H]1[C@@H]2[C@H](CN1C(=O)CNc1c(F)cc(F)cc1F)C2(C)C [ML104m]",
    "measurement-kind": "Papp B→A",
    "unit-tag": "nm/s",
    "rel": "=",
    "measurement": 25
  }
]

----------
# experiment-summary: in vitro
# condition-summary: human plasma
Below, each entry is listed alongside its reported half-life.

[
  {
    "molecule": "CC(C)(C)CC(=O)N[C@H](C(=O)N1C[C@H]2[C@@H]([C@H]1C(=O)NC(C[C@@H]1CCNC1=O)C(=O)C(N)=O)C2(C)C)C(C)(C)C (some centres unmarked)",
    "half-life [h]": 5.5
  },
  {
    "molecule": "CC(C)(C)NC(=O)N[C@H](C(=O)N1C[C@H]2[C@@H]([C@H]1C(=O)NC(CC1CCC1)C(=O)C(N)=O)C2(C)C)C(C)(C)C (some centres unmarked) [Boceprevir, boceprevir, reference compound]",
    "half-life [h]": 8.25
  }
]

----------
# experimental-system: Human Cathepsin L (Homo sapiens, UniProt P07711)
# Sequence (P07711 114-333): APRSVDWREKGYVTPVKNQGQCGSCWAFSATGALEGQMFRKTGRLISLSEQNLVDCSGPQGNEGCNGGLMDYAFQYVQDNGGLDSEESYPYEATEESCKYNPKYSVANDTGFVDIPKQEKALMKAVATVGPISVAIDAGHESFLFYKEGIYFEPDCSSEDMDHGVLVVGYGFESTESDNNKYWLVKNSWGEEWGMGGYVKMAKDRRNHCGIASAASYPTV

[
  {
    "compound": "CC1(C)[C@@H]2[C@@H](C(=O)NC(C[C@@H]3CCNC3=O)C(=O)C(N)=O)N(C(=O)CNc3c(F)cc(F)cc3F)C[C@@H]21 (stereo partly drawn) [ML104]",
    "IC50, µM": 11
  },
  {
    "compound": "CC(C)C[C@H](NC(=O)OCc1ccccc1)C(=O)N[C@@H](CC1CCNC1=O)C(O)S(=O)(=O)[O-].[Na+] (stereo partly drawn) [GC-376, reference compound]",
    "IC50, µM": 0.001
  },
  {
    "compound": "CC(C)(C)NC(=O)N[C@H](C(=O)N1C[C@H]2[C@@H]([C@H]1C(=O)N[C@@H](C[C@@H]1CCNC1=O)C(=O)C(N)=O)C2(C)C)C(C)(C)C [ML1000]",
    "IC50, µM": 3.2
  }
]

----------
# experimental-system: mature SARSCoV2 M^pro (Severe acute respiratory syndrome coronavirus 2, UniProt P0DTD1)
# experiment-summary: biochemical
# Design: species or system SARS-CoV-2
# condition-summary: Example 6; read-out: IC50 against SARS-CoV-2 Mpro
pIC50: −log10 of the molar value.

[
  {
    "compound": "COc1cccc2[nH]c(C(=O)N3C[C@H]4[C@@H]([C@H]3C(=O)N[C@@H](C[C@@H]3CCNC3=O)C(=O)C(N)=O)C4(C)C)cc12 [ML105]",
    "experimental-system": "mature SARSCoV2 M^pro (Severe acute respiratory syndrome coronavirus 2, UniProt P0DTD1)",
    "pIC50": "> 7.30"
  },
  {
    "compound": "CC(C)(C)[C@H](NC(=O)C12CC(C1)C2)C(=O)N1C[C@H]2[C@@H]([C@H]1C(=O)N[C@@H](C[C@@H]1CCNC1=O)C(=O)C(N)=O)C2(C)C [ML1002]",
    "experimental-system": "mature SARSCoV2 M^pro (Severe acute respiratory syndrome coronavirus 2, UniProt P0DTD1)",
    "pIC50": "> 7.30"
  }
]

----------
# experimental-system: SARS-CoV-2 mature Mpro (Severe acute respiratory syndrome coronavirus 2, UniProt P0DTD1)
# Assay type: binding
# condition-summary: 3 μM Mpro, 30 μM compound

[
  {
    "molecule": "CC1(C)[C@@H]2[C@@H](C(=O)NC(C[C@@H]3CCNC3=O)C(=O)C(N)=O)N(C(=O)CNc3c(F)cc(F)cc3F)C[C@@H]21 (some centres unmarked)",
    "unit-tag": "°C",
    "ΔTm Mpro": 17.5
  },
  {
    "molecule": "CNC(=O)C(=O)[C@H](C[C@@H]1CCNC1=O)NC(=O)[C@@H]1[C@@H]2[C@H](CN1C(=O)CNc1c(F)cc(F)cc1F)C2(C)C [ML104m]",
    "unit-tag": "°C",
    "ΔTm Mpro": 17.1
  },
  {
    "molecule": "CC(C)(C)[C@H](NC(=O)C12CC(C1)C2)C(=O)N1C[C@H]2[C@@H]([C@H]1C(=O)N[C@@H](C[C@@H]1CCNC1=O)C(=O)C(N)=O)C2(C)C",
    "unit-tag": "°C",
    "ΔTm Mpro": 21.6
  },
  {
    "molecule": "CC(C)(C)CC(=O)N[C@H](C(=O)N1C[C@H]2[C@@H]([C@H]1C(=O)NC(C[C@@H]1CCNC1=O)C(=O)C(N)=O)C2(C)C)C(C)(C)C (some centres unmarked)",
    "unit-tag": "°C",
    "ΔTm Mpro": 21.6
  },
  {
    "molecule": "CC1(C)[C@@H]2[C@@H](C(=O)N[C@@H](C[C@@H]3CCNC3=O)C(=O)C(N)=O)N(C(=O)CCc3ccccc3)C[C@@H]21",
    "unit-tag": "°C",
    "ΔTm Mpro": 15.5
  },
  {
    "molecule": "CNC(=O)C(=O)[C@H](C[C@@H]1CCNC1=O)NC(=O)[C@@H]1[C@@H]2[C@H](CN1C(=O)CCc1ccccc1)C2(C)C [ML102m]",
    "unit-tag": "°C",
    "ΔTm Mpro": 15.2
  },
  {
    "molecule": "CNC(=O)C(=O)[C@H](C[C@@H]1CCNC1=O)NC(=O)[C@@H]1[C@@H]2[C@H](CN1C(=O)[C@@H](NC(=O)C13CC(C1)C3)C(C)(C)C)C2(C)C [ML1002m]",
    "unit-tag": "°C",
    "ΔTm Mpro": 21
  },
  {
    "molecule": "COc1cccc2[nH]c(C(=O)N3C[C@H]4[C@@H]([C@H]3C(=O)N[C@@H](C[C@@H]3CCNC3=O)C(=O)C(N)=O)C4(C)C)cc12",
    "unit-tag": "°C",
    "ΔTm Mpro": 18.6
  }
]
